# STUDY_SYSTEM: Microphthalmia-associated transcription factor (Homo sapiens) (UniProt O75030)
# Sequence (O75030 whole entry, looked up): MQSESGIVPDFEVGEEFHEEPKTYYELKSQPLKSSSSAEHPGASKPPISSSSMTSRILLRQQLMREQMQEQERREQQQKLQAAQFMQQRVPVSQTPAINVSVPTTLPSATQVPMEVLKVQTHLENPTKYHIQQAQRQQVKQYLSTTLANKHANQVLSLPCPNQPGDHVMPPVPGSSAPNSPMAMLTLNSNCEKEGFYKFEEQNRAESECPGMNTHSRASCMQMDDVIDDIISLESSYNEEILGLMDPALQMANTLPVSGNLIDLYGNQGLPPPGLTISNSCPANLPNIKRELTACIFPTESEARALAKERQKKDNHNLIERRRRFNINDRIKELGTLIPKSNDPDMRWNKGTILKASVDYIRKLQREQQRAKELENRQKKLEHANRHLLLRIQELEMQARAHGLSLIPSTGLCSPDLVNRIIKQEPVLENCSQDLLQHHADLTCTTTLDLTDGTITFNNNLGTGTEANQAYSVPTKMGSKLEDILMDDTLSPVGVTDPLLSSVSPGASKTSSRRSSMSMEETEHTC
# ASSAY_EXPLANATION: MITF inhibitors by FRET titration, dose response, biochemical, high throughput (AID 1259375);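 also: FRET between CFP-tagged and YFP-tagged MITF protein partners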
# ASSAY_CONDITIONS: FRET biochemical assay, MITF inhibition
Calls of active or inactive are those of the source. No rule for the calls is given here.
As shown below, each of these compounds has a reported IC50 value.

[ask] // lookup IC50 | system=Microphthalmia-associated transcription factor (Homo sapiens) (UniProt O75030) | key= O=C1OC(c2ccc(Cl)cc2Cl)=N/C1=C\c1ccc([N+](=O)[O-])o1
[reply] > 6.05 µM (inactive)
